Answer each item with its documented AUC(0-t).
assay_protocol: Pharmacokinetics alone and in combination, selumetinib + erlotinib arm
condition_summary: human, plasma, oral, AUC(0–8), geometric mean; QD cohorts; in combination, selumetinib 100 mg (N = 6) + erlotinib 100 mg QD
Numbers only here, please. The scale is ng·h/mL.

Challenge: Quick check: AUC(0-t) of Cn1cnc2c(F)c(Nc3ccc(Br)cc3Cl)c(C(=O)NOCCO)cc21 ?
Response given: 7070

Challenge: Now the same for C#Cc1cccc(Nc2ncnc3cc(OCCOC)c(OCCOC)cc23)c1 [Erlotinib, reference compound]
Response given: 8500

====

assay_protocol: Pharmacokinetics alone and in combination, selumetinib + erlotinib arm
condition_summary: human, plasma, oral, 100 mg, AUC(0–8), geometric mean; QD cohorts; dosed alone, selumetinib 100 mg cohort (N = 6); erlotinib 100 mg QD
readout_type: AUC(0-t) (ng·h/mL)
Numbers only here, please. The scale is ng·h/mL.

Challenge: Quick check: AUC(0-t) of C#Cc1cccc(Nc2ncnc3cc(OCCOC)c(OCCOC)cc23)c1 [Erlotinib, reference compound] ?
Response given: 7100

Challenge: Now the same for Cn1cnc2c(F)c(Nc3ccc(Br)cc3Cl)c(C(=O)NOCCO)cc21
Response given: 4400
